- experimental system: GRK2 (Homo sapiens)
- Sequence (P25098 1-689): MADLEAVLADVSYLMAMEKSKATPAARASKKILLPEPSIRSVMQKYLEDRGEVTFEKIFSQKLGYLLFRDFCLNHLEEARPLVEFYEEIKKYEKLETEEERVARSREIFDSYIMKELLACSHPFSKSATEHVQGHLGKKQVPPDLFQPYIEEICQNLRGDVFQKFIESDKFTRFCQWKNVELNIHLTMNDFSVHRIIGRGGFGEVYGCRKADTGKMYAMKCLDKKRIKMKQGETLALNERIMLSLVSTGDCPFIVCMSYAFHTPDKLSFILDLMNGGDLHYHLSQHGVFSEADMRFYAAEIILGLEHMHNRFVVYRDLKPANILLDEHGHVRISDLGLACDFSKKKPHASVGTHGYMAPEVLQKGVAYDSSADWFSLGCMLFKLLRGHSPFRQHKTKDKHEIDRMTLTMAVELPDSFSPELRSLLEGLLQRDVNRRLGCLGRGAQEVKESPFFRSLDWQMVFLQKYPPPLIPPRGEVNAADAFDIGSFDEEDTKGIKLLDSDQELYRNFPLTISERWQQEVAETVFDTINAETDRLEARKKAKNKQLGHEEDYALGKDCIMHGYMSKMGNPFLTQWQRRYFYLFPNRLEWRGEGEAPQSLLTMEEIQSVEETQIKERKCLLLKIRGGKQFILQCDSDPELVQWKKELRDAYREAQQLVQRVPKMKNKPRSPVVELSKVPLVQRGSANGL
- method: GRK2 Degradation Assay and Western Blot in PAXF1657 cells
- Assay type: cell-based
- Parameters: endogenous in cells; host or cells: PAXF1657
- experimental context: Conc 0.3 uM; read-out: Degradation Assay - 3 point: Degradation (%)
Counter-ions that a name gives are not always drawn.
# inhibition at 0.3 µM >= 60% gives fulfilled, anything below gives not fulfilled

- compound: "C[C@@H](NC(=O)c1cccc(NCc2nnc(-c3ccncn3)n2C)c1)c1ccc(OCCCCCCOCCOCCOCCCC(=O)N2CCN(c3ccc4c(c3)CN(C3CCC(=O)NC3=O)C4=O)CC2)cc1 (stereo partly shown) [Compound D124]"
  class name: "fulfilled"
- compound: "C[C@@H](NC(=O)c1cccc(NCc2nnc(-c3ccncn3)n2C)c1)c1cccc(OCCCCCCOCCOCC(=O)N2CCN(c3cc4c(cc3F)C(=O)N(C3CCC(=O)NC3=O)C4=O)CC2)c1 (stereo partly shown) [Compound D139]"
  class name: "fulfilled"
- compound: "C[C@@H](NC(=O)c1cccc(NCc2nnc(-c3ccncn3)n2C)c1)c1ccc(OCCN2CCN(c3ccc4c(c3)CN(C3CCC(=O)NC3=O)C4=O)CC2)cc1 (stereo partly shown) [Compound D174, hydrochloride]"
  class name: "fulfilled"
- compound: "C[C@@H](NC(=O)c1cccc(NCc2nnc(-c3ccncn3)n2C)c1)c1cccc(OCCCCCn2cc(CCCC(=O)Nc3cccc4c3CN(C3CCC(=O)NC3=O)C4=O)nn2)c1 (stereo partly shown) [Compound D157]"
  class name: "not fulfilled"
- compound: "Cn1c(CNc2cccc(C(=O)NCc3cccc(OCCCCCCOCCOCCOCCC(=O)Nc4cccc5c4CN(C4CCC(=O)NC4=O)C5=O)c3)c2)nnc1-c1ccncn1 (stereo not shown) [Compound D195]"
  class name: "not fulfilled"
- compound: "Cn1c(CNc2cccc(C(=O)NCc3cc(OCCCCCOCCCOCC(=O)Nc4cccc5c4CN(C4CCC(=O)NC4=O)C5=O)ccc3F)c2)nnc1-c1ccncn1 (stereo not shown) [Compound D197]"
  class name: "not fulfilled"
- compound: "C[C@@H](NC(=O)c1cccc(NCc2nnc(-c3ccncn3)n2C)c1)c1cccc(OCCCCCCOCCN2CCN(c3ccc4c(c3)CN(C3CCC(=O)NC3=O)C4=O)CC2)c1 (stereo partly shown) [Compound D126]"
  class name: "fulfilled"
- compound: "Cc1ncsc1-c1ccc(CNC(=O)[C@@H]2C[C@@H](O)CN2C(=O)[C@@H](NC(=O)COCCCOCCCCCOc2ccc([C@H](C)NC(=O)c3cccc(NCc4nnc(-c5ccncn5)n4C)c3)cc2)C(C)(C)C)cc1 [Compound D151]"
  class name: "not fulfilled"
- compound: "C[C@@H](NC(=O)c1cccc(NCc2nnc(-c3ccncn3)n2C)c1)c1cccc(OCCCCCCCn2cc(CCCC(=O)Nc3cccc4c3CN(C3CCC(=O)NC3=O)C4=O)nn2)c1 (stereo partly shown) [Compound D158]"
  class name: "not fulfilled"
- compound: "C[C@@H](NC(=O)c1cccc(NCc2nnc(-c3ccncn3)n2C)c1)c1cccc(OCCCCCCOCCOCCN2CCN(c3ccc4c(c3)CN(C3CCC(=O)NC3=O)C4=O)CC2)c1 (stereo partly shown) [Compound D135]"
  class name: "fulfilled"
